Recorded values, source ChEMBL document CHEMBL1208665.

Assay: Cytotoxicity against Vero cells after 24 hrs by MTS assay
Type: cell-based
Conditions: chlorocebus sabaeus, Vero cells; read-out: MIC
quantity name: MCC at 24 h

[[record]]
cpd_smiles = "CCCNc1nc(NCCC)nc(N2CCCCC2)n1"
recorded_measurement = "> 12.5 µg/mL"


---

Assay: Cytotoxicity against mouse BMDM after 48 hrs by MTS assay
Type: cell-based
Conditions: bmdm, 48 h
quantity name: Activity

[[record]]
compound = "CC(C)Nc1nc(NNC(=O)c2ccncc2)nc(N2CCCCC2)n1"
quantity_name = "Activity"
recorded_measurement = "Non-toxic"

[[record]]
compound = "COc1cc(-c2cc(SC)nc(Nc3nc(NC(C)C)nc(NC(C)C)n3)n2)cc(OC)c1OC"
quantity_name = "Activity"
recorded_measurement = "Toxic"

[[record]]
compound = "COc1cc(-c2cc(SC)nc(Nc3nc(NC(C)(C)C)nc(NC(C)(C)C)n3)n2)cc(OC)c1OC"
quantity_name = "Activity"
recorded_measurement = "Toxic"

[[record]]
compound = "O=C(NNc1nc(N2CCOCC2)nc(N2CCCc3ccccc32)n1)c1ccncc1"
quantity_name = "Activity"
recorded_measurement = "Non-toxic"

[[record]]
compound = "CCNC1CN(c2nc(N3CCc4ccccc4C3)nc(N3CCc4ccccc4C3)n2)CCO1 (stereo not given)"
quantity_name = "Activity"
recorded_measurement = "Toxic"

[[record]]
compound = "CC(C)(C)Nc1nc(NNC(=O)c2ccncc2)nc(N2CCc3ccccc3C2)n1"
quantity_name = "Activity"
recorded_measurement = "Toxic"

[[record]]
compound = "CC(C)Nc1nc(NNC(=O)c2ccncc2)nc(N2CCc3ccccc3C2)n1"
quantity_name = "Activity"
recorded_measurement = "Non-toxic"

[[record]]
compound = "O=C(NNc1nc(N2CCc3ccccc3C2)nc(N2CCc3ccccc3C2)n1)c1ccncc1"
quantity_name = "Activity"
recorded_measurement = "Toxic"

[[record]]
compound = "CCCCNc1nc(NNC(=O)c2ccncc2)nc(N2CCc3ccccc3C2)n1"
quantity_name = "Activity"
recorded_measurement = "Non-toxic"

[[record]]
compound = "CCCCNc1nc(NNC(=O)c2ccncc2)nc(N2CCCCC2)n1"
quantity_name = "Activity"
recorded_measurement = "Non-toxic"

[[record]]
compound = "CC(C)Nc1nc(NNC(=O)c2ccncc2)nc(N2CCCc3ccccc32)n1"
quantity_name = "Activity"
recorded_measurement = "Non-toxic"

[[record]]
compound = "O=C(NNc1nc(Nc2ccccc2)nc(N2CCOCC2)n1)c1ccncc1"
quantity_name = "Activity"
recorded_measurement = "Non-toxic"

[[record]]
compound = "O=C(NNc1nc(N2CCCCC2)nc(N2CCc3ccccc3C2)n1)c1ccncc1"
quantity_name = "Activity"
recorded_measurement = "Toxic"

[[record]]
compound = "NNC(=O)c1ccncc1"
quantity_name = "Activity"
recorded_measurement = "Non-toxic"

[[record]]
compound = "O=C(NNc1nc(Nc2ncccn2)nc(N2CCCCC2)n1)c1ccncc1"
quantity_name = "Activity"
recorded_measurement = "Non-toxic"

